- STUDY SYSTEM: binding of FAM19A5 protein to LRRC4B (amino acids 453-576)-hFc (Homo sapiens, UniProt Q7Z5A7)
- Sequence (Q7Z5A7 44-132): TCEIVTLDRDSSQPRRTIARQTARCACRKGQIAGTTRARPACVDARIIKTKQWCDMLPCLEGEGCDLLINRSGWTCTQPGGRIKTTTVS
- ASSAY COMMENT: Competitive inhibition assay, plate coated with LRRC4B (amino acids 453-576)-hFc, peptides at 20 nM
- ASSAY SETUP: Table 9; deletion variants; 20 nM peptide; FAM19A5 1 ng/mL
Parameter: Inhibition rate (%) LRRC4B (amino acids 453-576)-hFc. Scope: all listed entries.
Express your answer in %, writing the number without its unit.

CONSTRUCT SEQUENCE: KNTYFTTVTVETNKETQ [FB-m10dN]
READOUT UNIT: %
MEASUREMENT: 0.0
//
CONSTRUCT SEQUENCE: KNYFTTVTVETNKETQ [FB-m9dN]
READOUT UNIT: %
MEASUREMENT: −1.6
//
CONSTRUCT SEQUENCE: GYTYFTTVTVETLETQPGEE [FB-20]
READOUT UNIT: %
MEASUREMENT: 62.0
//
CONSTRUCT SEQUENCE: KNYTYFTTVNKETQ [FB-m7dC]
READOUT UNIT: %
MEASUREMENT: 0.4
//
CONSTRUCT SEQUENCE: KNYTYFTTVTVNKETQ [FB-m9dC]
READOUT UNIT: %
MEASUREMENT: 2.7
//
CONSTRUCT SEQUENCE: KNYTYFTTVTVETNKETQ [FB-m11dC]
READOUT UNIT: %
MEASUREMENT: 30.4
//
CONSTRUCT SEQUENCE: KNYTYFTTVTNKETQ [FB-m8dC]
READOUT UNIT: %
MEASUREMENT: −0.9
//
CONSTRUCT SEQUENCE: KNTTVTVETNKETQ [FB-m7dN]
READOUT UNIT: %
MEASUREMENT: −1.8
//
CONSTRUCT SEQUENCE: KNFTTVTVETNKETQ [FB-m8dN]
READOUT UNIT: %
MEASUREMENT: −1.1
//
CONSTRUCT SEQUENCE: KNYTYFTTVTVENKETQ [FB-m10dC]
READOUT UNIT: %
MEASUREMENT: 21.9

Now take the following sequence into account.
Exercise: Item KNYTYFTTNKETQ [FB-m6dC] has what recorded Inhibition rate (%) LRRC4B (amino acids 453-576)-hFc?
Key: 5.5
